// provenance: paper PMC9482650

- assayed system: ARHGEF12, Q9NZN5-2
- Sequence (Q9NZN5 other isoform, or with tags, fused parts or gaps): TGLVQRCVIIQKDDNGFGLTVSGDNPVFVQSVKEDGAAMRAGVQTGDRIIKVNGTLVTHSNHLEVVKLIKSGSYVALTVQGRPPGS
- assay name: holdup assay
- Set-up: key: below the threshold = too weak to quantify, mostly under pKd 3.1 to 4
- condition notes: plain residues with an end cap or a label only (N-terminal biotin on a linker: ado-ado)
# Lookup of reported pKd keyed by entry

binder	pKd
SSALYGESDL [ACTN2, P35609]	4.06
NLSIEKETKL [ASNSD1, Q9NWL6]	4.43
KSGKQTMLVV [TRIM29, Q14134]	3.68
SAAKVLTSMC [GHRHR, Q02643]	4.65
